# Subject of test: mouse melanocortin-5 receptor (mouse, UniProt P41149 1-325)
# Sequence (P41149 whole entry): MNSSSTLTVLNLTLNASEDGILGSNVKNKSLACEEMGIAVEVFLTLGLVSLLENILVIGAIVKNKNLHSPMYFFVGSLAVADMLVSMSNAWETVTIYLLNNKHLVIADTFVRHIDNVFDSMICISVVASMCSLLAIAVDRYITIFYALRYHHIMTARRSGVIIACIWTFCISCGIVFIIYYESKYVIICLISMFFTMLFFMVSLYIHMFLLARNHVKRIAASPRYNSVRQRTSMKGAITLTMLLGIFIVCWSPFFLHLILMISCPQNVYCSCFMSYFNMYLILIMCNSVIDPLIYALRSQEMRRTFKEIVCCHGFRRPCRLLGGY
# Method notes: cell-based or functional assay
Square brackets hold non-standard residues; d marks the D form.
Readout name: inverse agonist, % change from basal cAMP at 100 µM (%)
Report the figure in % without appending any unit label.

cyclo(PRFFNAA[dP]) (SMILES C[C@@H]1NC(=O)[C@H](CC(N)=O)NC(=O)[C@H](Cc2ccccc2)NC(=O)[C@H](Cc2ccccc2)NC(=O)[C@H](CCCNC(=N)N)NC(=O)[C@@H]2CCCN2C(=O)[C@H]2CCCN2C(=O)[C@H](C)NC1=O) [c[Pro-Arg-Phe-Phe-Asn-Ala-Ala-DPro]]
-25

INPUT: Please look up its inverse agonist, % change from basal cAMP at 100 µM: cyclo(PRFFNDF[dP]) (SMILES N=C(N)NCCC[C@@H]1NC(=O)[C@@H]2CCCN2C(=O)[C@H]2CCCN2C(=O)[C@H](Cc2ccccc2)NC(=O)[C@H](CC(=O)O)NC(=O)[C@H](CC(N)=O)NC(=O)[C@H](Cc2ccccc2)NC(=O)[C@H](Cc2ccccc2)NC1=O) [c[Pro-Arg-Phe-Phe-Asn-Asp-Phe-DPro]]
OUTPUT: -25
